Hey, just so you know, these numbers are from patent US7544686B2.

target: calcium channel (α1H) (Homo sapiens, UniProt O95180); construct: expressed in transfected cells; host or cells: Xenopus oocytes; assay: Inhibition of calcium channel (α1H) expressed in Xenopus oocytes (first-step screen); assay type: cell-based; conditions: read-out: % Inhibition in oocyte (100 μM)
Sequence (O95180 whole entry): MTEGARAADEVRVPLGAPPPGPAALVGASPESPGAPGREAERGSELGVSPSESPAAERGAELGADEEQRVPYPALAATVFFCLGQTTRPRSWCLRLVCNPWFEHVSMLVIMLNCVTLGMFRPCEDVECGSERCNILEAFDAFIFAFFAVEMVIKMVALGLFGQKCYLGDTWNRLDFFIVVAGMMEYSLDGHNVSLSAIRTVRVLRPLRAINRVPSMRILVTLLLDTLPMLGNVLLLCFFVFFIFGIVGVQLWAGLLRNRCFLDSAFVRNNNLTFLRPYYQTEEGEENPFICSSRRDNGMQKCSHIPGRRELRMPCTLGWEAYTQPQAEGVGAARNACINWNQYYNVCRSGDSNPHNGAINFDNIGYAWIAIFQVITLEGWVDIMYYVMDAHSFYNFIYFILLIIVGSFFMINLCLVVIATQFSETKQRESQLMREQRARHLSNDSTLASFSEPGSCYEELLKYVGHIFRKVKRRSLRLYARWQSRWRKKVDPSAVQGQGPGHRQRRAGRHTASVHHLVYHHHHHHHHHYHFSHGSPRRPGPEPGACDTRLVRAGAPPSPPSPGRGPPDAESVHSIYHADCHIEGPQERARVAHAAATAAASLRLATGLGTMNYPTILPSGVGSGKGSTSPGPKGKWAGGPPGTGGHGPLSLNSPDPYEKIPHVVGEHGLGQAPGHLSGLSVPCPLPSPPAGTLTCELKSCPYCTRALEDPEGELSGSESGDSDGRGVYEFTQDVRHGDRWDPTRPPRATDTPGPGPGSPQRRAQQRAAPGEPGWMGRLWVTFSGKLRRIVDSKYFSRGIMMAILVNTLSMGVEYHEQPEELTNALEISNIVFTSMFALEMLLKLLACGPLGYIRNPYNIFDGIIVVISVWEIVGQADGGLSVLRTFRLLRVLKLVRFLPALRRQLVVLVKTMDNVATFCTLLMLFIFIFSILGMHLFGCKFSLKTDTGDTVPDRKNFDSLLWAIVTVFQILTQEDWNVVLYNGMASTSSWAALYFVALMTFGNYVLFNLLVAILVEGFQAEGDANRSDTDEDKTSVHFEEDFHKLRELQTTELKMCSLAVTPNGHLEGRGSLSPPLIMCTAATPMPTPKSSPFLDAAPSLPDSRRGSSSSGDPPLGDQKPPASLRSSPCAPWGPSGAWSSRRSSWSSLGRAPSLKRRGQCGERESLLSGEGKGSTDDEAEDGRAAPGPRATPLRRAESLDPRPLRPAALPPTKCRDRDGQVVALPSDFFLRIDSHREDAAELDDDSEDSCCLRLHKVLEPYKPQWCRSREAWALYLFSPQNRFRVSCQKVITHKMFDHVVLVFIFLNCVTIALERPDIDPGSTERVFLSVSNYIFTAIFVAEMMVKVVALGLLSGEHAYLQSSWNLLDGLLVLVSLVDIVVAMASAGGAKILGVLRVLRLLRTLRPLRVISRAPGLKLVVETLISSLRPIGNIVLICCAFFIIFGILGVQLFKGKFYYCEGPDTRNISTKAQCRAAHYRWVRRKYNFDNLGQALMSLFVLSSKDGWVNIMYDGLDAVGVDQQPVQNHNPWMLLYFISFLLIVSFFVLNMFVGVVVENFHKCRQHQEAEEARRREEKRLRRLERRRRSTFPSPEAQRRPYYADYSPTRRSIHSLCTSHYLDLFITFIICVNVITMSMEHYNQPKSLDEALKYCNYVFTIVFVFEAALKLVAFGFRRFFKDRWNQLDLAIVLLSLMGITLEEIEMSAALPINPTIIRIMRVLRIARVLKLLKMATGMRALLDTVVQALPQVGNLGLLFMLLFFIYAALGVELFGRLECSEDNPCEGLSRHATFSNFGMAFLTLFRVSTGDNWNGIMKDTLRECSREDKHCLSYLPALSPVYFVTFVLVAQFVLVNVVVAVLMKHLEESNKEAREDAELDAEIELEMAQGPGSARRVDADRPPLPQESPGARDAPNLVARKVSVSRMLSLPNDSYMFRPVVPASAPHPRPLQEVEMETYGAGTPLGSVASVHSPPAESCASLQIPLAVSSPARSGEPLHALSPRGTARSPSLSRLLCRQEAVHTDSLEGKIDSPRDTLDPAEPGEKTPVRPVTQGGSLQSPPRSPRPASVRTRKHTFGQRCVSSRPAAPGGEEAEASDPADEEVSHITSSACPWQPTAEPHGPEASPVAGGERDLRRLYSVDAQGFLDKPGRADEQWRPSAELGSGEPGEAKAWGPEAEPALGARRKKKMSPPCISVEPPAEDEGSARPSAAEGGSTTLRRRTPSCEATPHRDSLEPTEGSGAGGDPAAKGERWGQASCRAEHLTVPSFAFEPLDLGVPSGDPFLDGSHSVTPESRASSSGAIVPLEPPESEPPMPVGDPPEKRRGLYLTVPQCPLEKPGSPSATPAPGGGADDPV
Outcome Measure: inhibition at 100 µM (%)

Study these solved cases before continuing.
Tell us which inhibition at 100 µM value is on record for CCCc1cc(CNCCN2CCN(c3cccc(C)c3C)CC2)nn1-c1ccccc1
74.6

Identify measured inhibition at 100 µM associated with CC(C)Cc1cc(CNCCN2CCN(c3ccccc3)CC2)nn1-c1ccccc1
77.1

// Input: CCCc1cc(CNCCN2CCN(c3cccc(C)c3C)CC2)nn1C(C)(C)C . Output its inhibition at 100 µM only.
27.5

Supply inhibition at 100 µM value. Item: Cc1cc(CNCCN2CCN(C(c3ccccc3)c3ccc(Cl)cc3)CC2)nn1-c1ccccc1 (centres unmarked)
34.5

Return value of inhibition at 100 µM for input Cc1cc(CNCCN2CCN(C(c3ccccc3)c3ccccc3)CC2)nn1-c1ccccc1 , no commentary.
95.4

I = CCCc1cc(CNCCN2CCN(c3cccc(Cl)c3)CC2)nn1-c1ccccc1
II = CCCc1cc(CNCCN2CCN(C(c3ccccc3)c3ccccc3)CC2)nn1C(C)(C)C
III = COc1ccc(N2CCN(CCNCc3cc(CC(C)C)n(-c4ccccc4)n3)CC2)cc1
Order by inhibition at 100 µM, ascending. Respond with an ordered listing of the labels, as requested.
II, I, III
